Can you tell me IC50 for the items I'm about to list?
molecular target: TNFα (Homo sapiens (Human), UniProt P01375); experiment: TNFα binding assay (time-resolved FRET, biotinylated TNFα); conditions: 1 nM biotinylated TNFα, 80 nM probe, 16 hr incubation; read-out: TNF-HTRF-biotin
Sequence (P01375 77-233): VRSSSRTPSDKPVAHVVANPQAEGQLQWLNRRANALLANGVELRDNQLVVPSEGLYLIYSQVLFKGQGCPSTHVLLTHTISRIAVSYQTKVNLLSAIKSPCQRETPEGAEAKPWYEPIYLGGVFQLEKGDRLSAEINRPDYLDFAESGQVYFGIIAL
Kindly provide the numeric value in nM only, without the unit symbol.

Entry Cc1nc2cc(F)c(-c3cnc(N4CCN(C(=O)COCCn5cc(COCCOCCOCCOCCNC(=O)CC[C@H](NC(=O)c6ccc(NCc7cnc8nc(N)nc(O)c8n7)cc6)C(=O)O)nn5)CC4)nc3)nc2c(N[C@H](C)c2cc(C#N)ccc2F)c1Cl ; IC50 = 25

The measured IC50 associated with Cc1nc2cc(F)c(-c3cnc(N4CCN(C(=O)COCCOCCOCCOCCOCCn5cc(CC[C@H](NC(=O)c6ccc(NCc7cnc8nc(N)nc(O)c8n7)cc6)C(=O)O)nn5)CC4)nc3)nc2c(N[C@H](C)c2cc(C#N)ccc2F)c1Cl reads 42

Lookup result for Cc1nc2cc(F)c(-c3cnc(N4CCN(C(=O)COCCOCCOCCOCCOCCOCCn5cc(CC[C@H](NC(=O)c6ccc(N(C)Cc7cnc8nc(N)[nH]c(=O)c8n7)cc6)C(=O)O)nn5)CC4)nc3)nc2c(N[C@H](C)c2cc(C#N)ccc2F)c1Cl ; measured IC50: 17

Entry Cc1nc2cc(F)c(-c3cnc(N4CCN(C(=O)COCCn5cc(CCCN6CCC7(CC6)CCN(C(=O)CC[C@H](NC(=O)c6ccc(NCc8cnc9nc(N)nc(O)c9n8)cc6)C(=O)O)CC7)nn5)CC4)nc3)nc2c(N[C@H](C)c2cc(C#N)ccc2F)c1Cl — recorded IC50 = 7.6

* * *

Readout kind: pIC50
Formally, pIC50 is defined as -log10 of the concentration c, with c in mol/L.

Observed pIC50, folate receptor beta (Homo sapiens (Human), UniProt P14207), Cc1nc2cc(F)c(-c3cnc(N4CCN(C(=O)COCCOCCOCCOCCOCCOCCn5cc(CC[C@H](NC(=O)c6ccc(NCc7cnc8nc(N)nc(O)c8n7)cc6)C(=O)O)nn5)CC4)nc3)nc2c(N[C@H](C)c2cc(C#N)ccc2F)c1Cl : 8.12

Entry Cc1nc2cc(F)c(-c3cnc(N4CCN(C(=O)COCCOCCOCCOCCOCCOCCn5cc(CC[C@H](NC(=O)c6ccc(SCc7ccc8nc(N)nc(O)c8c7)cc6)C(=O)O)nn5)CC4)nc3)nc2c(N[C@H](C)c2cc(C#N)ccc2F)c1Cl under folate receptor beta (Homo sapiens (Human), UniProt P14207) had pIC50 of 8.49

* * *

Record form. Attribute: kd. Fill in for each entry.
biological target: folate receptor beta (Homo sapiens (Human), UniProt P14207); test: Folate receptor SPR assay (biotinylated folate receptor beta on streptavidin chip); format: binding; conditions: multi-cycle kinetics, 25° C., 1:1 model
Sequence (P14207 17-255): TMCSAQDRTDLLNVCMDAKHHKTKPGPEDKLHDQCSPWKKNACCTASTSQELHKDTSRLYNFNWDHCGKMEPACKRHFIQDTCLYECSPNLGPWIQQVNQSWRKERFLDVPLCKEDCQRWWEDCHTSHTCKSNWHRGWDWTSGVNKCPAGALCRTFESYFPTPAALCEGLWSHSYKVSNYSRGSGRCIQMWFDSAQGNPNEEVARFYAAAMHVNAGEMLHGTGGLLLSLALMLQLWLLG
Give the quantity in s⁻¹, number only.

For reference, reported kd for Cc1nc2cc(F)c(-c3cnc(N4CCN(C(=O)COCCOCCOCCOCCOCCOCCn5cc(CC[C@H](NC(=O)c6ccc(OCc7ccc8nc(N)nc(O)c8c7)cc6)C(=O)O)nn5)CC4)nc3)nc2c(N[C@H](C)c2cc(C#N)ccc2F)c1Cl stands at 0.000692

# compound Cc1nc2cc(F)c(-c3cnc(N4CCN(C(=O)COCCOCCOCCOCCOCCOCCn5cc(CC[C@H](NC(=O)c6ccc(N(C)Cc7cnc8nc(N)[nH]c(=O)c8n7)cc6)C(=O)O)nn5)CC4)nc3)nc2c(N[C@H](C)c2cc(C#N)ccc2F)c1Cl ; its kd = 0.000344

For this compound ( Cc1nc2cc(F)c(-c3cnc(N4CCN(C(=O)COCCOCCOCCOCCOCCOCCn5cc(CC[C@H](NC(=O)c6ccc(N(C)Cc7ccc8nc(N)[nH]c(=O)c8c7)cc6)C(=O)O)nn5)CC4)nc3)nc2c(N[C@H](C)c2cc(C#N)ccc2F)c1Cl ), measured kd is 0.00112

Per the records, this compound ( Cc1nc2cc(F)c(-c3cnc(N4CCN(C(=O)COCCn5cc(COCCOCCOCCN6CCN(C(=O)CC[C@H](NC(=O)c7ccc(NCc8cnc9nc(N)nc(O)c9n8)cc7)C(=O)O)CC6)nn5)CC4)nc3)nc2c(N[C@H](C)c2cc(C#N)ccc2F)c1Cl ) has kd equal to 0.000337
